# experiment: NFAT Signaling Pathway (AID 444);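 also: carbachol stimulus at about its EC50 of 1 µM final; % is scaled to controls: 0 for no effect and ±100 for the full control effect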
# recorded conditions: Jurkat NFAT-bla M1, carbachol, beta-lactamase ratio, 5 h; at 17.2 µM (top of the series)
Inconclusive results are not listed.
measured quantity: activity change, negative = inhibition (%)

>  <compound>
Cc1cccc(C)c1NC(=O)CN1CCN(CCCC(c2ccc(F)cc2)c2ccc(F)cc2)CC1

>  <obs value>
5.94

$$$$
>  <compound>
O=C1OC(c2ccc(O)cc2)(c2ccc(O)cc2)c2ccccc21

>  <obs value>
-4.2

$$$$
>  <compound>
CCCCCCCCCCCCCCCC[N+](C)(C)CCN(Cc1ccc(OC)cc1)c1ncccn1

>  <obs value>
8.86

$$$$
>  <compound>
CC(C)(C(=O)c1cccnc1)c1cccnc1

>  <obs value>
-2.38

$$$$
>  <compound>
C[C@H]1C[C@H]2[C@@H]3CCC4=CC(=O)C=C[C@]4(C)[C@@]3(Cl)[C@@H](O)C[C@]2(C)[C@@]1(O)C(=O)CO

>  <obs value>
-6.95

$$$$
>  <compound>
CC(=O)O[C@]1(C(C)=O)CC[C@H]2[C@@H]3C[C@H](C)C4=CC(=O)CC[C@]4(C)[C@H]3CC[C@@]21C

>  <obs value>
6.28

$$$$
>  <compound>
Cc1cc(=O)n(-c2ccccc2)n1C

>  <obs value>
-2.45

$$$$
>  <compound>
CC(=O)OCC(=O)[C@@]12OC(C)(C)O[C@@H]1C[C@H]1[C@@H]3C[C@H](F)C4=CC(=O)C=C[C@]4(C)[C@@]3(F)[C@@H](O)C[C@@]12C

>  <obs value>
15.1

$$$$
>  <compound>
COc1cc(-c2ccc(=O)[nH]n2)ccc1OC(F)F

>  <obs value>
-13.5

$$$$
>  <compound>
CCCC(=O)Nc1ccc(OCC(O)CNC(C)C)c(C(C)=O)c1 (centres undefined)

>  <obs value>
-15.3

$$$$
>  <compound>
CCN(CC)C(=O)N1CCN(C)CC1

>  <obs value>
-7.87

$$$$
>  <compound>
CN1CCC(=C2c3ccccc3Sc3ccccc32)CC1

>  <obs value>
-31.6

$$$$
>  <compound>
Oc1c(Cl)cc(Cl)cc1Sc1cc(Cl)cc(Cl)c1O

>  <obs value>
-126

$$$$
>  <compound>
C[N+]1(CCCCC[N+]2(C)CCCC2)CCCC1

>  <obs value>
-12.7

$$$$
>  <compound>
Cc1ccnc(NS(=O)(=O)c2ccc(N)cc2)n1

>  <obs value>
0.552

$$$$
>  <compound>
Cc1c(N(C)CS(=O)(=O)O)c(=O)n(-c2ccccc2)n1C

>  <obs value>
-4.94

$$$$
>  <compound>
NCCc1ccn[nH]1

>  <obs value>
-6.22

$$$$
>  <compound>
CCOc1ccc(Cc2nccc3cc(OCC)c(OCC)cc23)cc1OCC

>  <obs value>
-11.6

$$$$
>  <compound>
C[C@]12CC[C@H]3[C@@H](CCC4=CC(=O)CC[C@@]43C)[C@@H]1CC[C@@H]2C(=O)CO

>  <obs value>
-13.6

$$$$
>  <compound>
Nc1nc2ncc(CNc3ccc(C(=O)N[C@@H](CCC(=O)O)C(=O)O)cc3)nc2c(=O)[nH]1

>  <obs value>
2.08

$$$$
>  <compound>
O=C1c2ccccc2C(=O)C1c1ccccc1

>  <obs value>
-11.7

$$$$
>  <compound>
C=C(CC)C(=O)c1ccc(OCC(=O)O)c(Cl)c1Cl

>  <obs value>
-133

$$$$
>  <compound>
COc1c(C)c2c(c(O)c1C/C=C(\C)CCC(=O)O)C(=O)OC2

>  <obs value>
-1.42

$$$$
>  <compound>
O=C(OCCOCCO)c1ccccc1Nc1cccc(C(F)(F)F)c1

>  <obs value>
-18

$$$$
>  <compound>
CC(=O)OCC(=O)[C@@]1(O)CC[C@H]2[C@@H]3CCC4=CC(=O)C=C[C@]4(C)[C@H]3[C@@H](O)C[C@@]21C

>  <obs value>
-6.54

$$$$
>  <compound>
CCN1CCN(c2cc3c(cc2F)c(=O)c(C(=O)O)cn3C2CC2)CC1

>  <obs value>
3.59

$$$$
>  <compound>
CC(O)(P(=O)(O)O)P(=O)(O)O

>  <obs value>
-2.6

$$$$
>  <compound>
CC(CCc1ccccc1)NCC(O)c1ccc(O)c(C(N)=O)c1 (centres undefined)

>  <obs value>
9.12

$$$$
>  <compound>
CCC(NC(C)C)C(O)c1ccc(O)c(O)c1 (centres undefined)

>  <obs value>
3

$$$$

---

# experiment: Quantitative high throughput screen for delayed death inhibitors of the malarial parasite plastid, 48 hour incubation (AID 488752); also: nearly all actives have a fitted effect of over 65% in size
# recorded conditions: Plasmodium falciparum growth; series mostly up to 28.7 µM
Records with an inconclusive call do not appear. Active and inactive are the calls of the source. The call rests on the fitted dose curve; in most records, active means well fitted inhibition curve with a large enough effect; inconclusive means small, poorly fitted or top-dose-only effect, or effect the other way; inactive means flat fitted curve, though single readings scatter.
Labels: 1 (yes) (active), 0 (no) (inactive)

>  <compound>
COC(=O)[C@H]1[C@H]2C[C@H]3c4[nH]c5ccccc5c4CCN3C[C@H]2CC[C@@H]1O

>  <category>
0 (no)

$$$$
>  <compound>
CC(CCc1ccccc1)NCC(O)c1ccc(O)c(C(N)=O)c1 (stereo not drawn)

>  <category>
1 (yes)

$$$$
>  <compound>
N[C@H](CO)C(=O)O

>  <category>
0 (no)

$$$$
>  <compound>
O=C1CCC(c2ccc(-n3ccnc3)cc2)=NN1

>  <category>
0 (no)

$$$$
>  <compound>
COc1cc(-c2ccc(=O)[nH]n2)ccc1OC(F)F

>  <category>
0 (no)

$$$$
>  <compound>
COc1cc(NS(C)(=O)=O)ccc1Nc1c2ccccc2nc2ccccc12

>  <category>
1 (yes)

$$$$
>  <compound>
C1CCc2nnnn2CC1

>  <category>
0 (no)

$$$$
>  <compound>
CCCn1c(=O)[nH]c(=O)c2[nH]cnc21

>  <category>
0 (no)

$$$$
>  <compound>
C[C@]12CC[C@@H]3c4ccc(O)cc4CC[C@H]3[C@@H]1CC[C@@H]2O

>  <category>
0 (no)

$$$$
>  <compound>
Oc1ccc(O)cc1

>  <category>
1 (yes)

$$$$
>  <compound>
CCC(NC(C)C)C(O)c1ccc(O)c(O)c1 (stereo not drawn)

>  <category>
0 (no)

$$$$
>  <compound>
CC1(C)CCC(NC(=O)[C@@H](N)CCC(=O)O)CC1

>  <category>
0 (no)

$$$$
>  <compound>
N[C@@H](Cc1cnc[nH]1)C(=O)O

>  <category>
0 (no)

$$$$

---

# experiment: qHTS of pediatric cancer cell lines to identify multiple opportunities for drug repurposing: Primary screen for SK-N-SH cells (AID 1347098); also: nearly all actives have a fitted effect of over 65% in size
# recorded conditions: SK-N-SH viability, CellTiter-Glo luminescence, 48 h; series mostly up to 57 µM
Inconclusive results are not listed. The source made the active and inactive calls. Calls follow the shape of the dose curve; as a rule, active = well fitted cell-killing curve with a large enough effect; inconclusive = small, poorly fitted or top-dose-only effect; inactive = no such curve, though single readings can be large or run the other way.
Outcome codes: 1 (yes) (active), 0 (no) (inactive)

>  <compound>
COc1cc(C(=S)N2CCOCC2)cc(OC)c1OC

>  <category>
0 (no)

$$$$
>  <compound>
CCCCC(CC)CN=C(N)NC(N)=NCCCCCCN=C(N)NC(N)=NCC(CC)CCCC (stereo unspecified)

>  <category>
1 (yes)

$$$$
>  <compound>
C=C(CC)C(=O)c1ccc(OCC(=O)O)c(Cl)c1Cl

>  <category>
1 (yes)

$$$$
>  <compound>
CC(=O)Oc1ccc(C(c2ccc(OC(C)=O)cc2)c2ccccn2)cc1

>  <category>
0 (no)

$$$$
>  <compound>
CN=C(NC#N)Nc1ccc(C2=NNC(=O)CC2C)cc1 (stereo unspecified)

>  <category>
0 (no)

$$$$
>  <compound>
C#C[C@]1(O)CC[C@H]2[C@@H]3CCC4=CC(=O)CC[C@@H]4[C@H]3CC[C@@]21C

>  <category>
0 (no)

$$$$
>  <compound>
O=C(Nc1ccc(Cl)c(Cl)c1)C1CC1

>  <category>
0 (no)

$$$$
>  <compound>
C[n+]1c2cc(N)ccc2cc2ccc(N)cc21 (tested in a mixture with another compound)

>  <category>
1 (yes)

$$$$
>  <compound>
CC(C)n1nc(-c2cc3cc(O)ccc3[nH]2)c2c(N)ncnc21

>  <category>
1 (yes)

$$$$
>  <compound>
COc1cccc2c1C(=O)c1c(O)c3c(c(O)c1C2=O)C[C@@](O)(C(=O)CO)C[C@@H]3O[C@H]1C[C@H](N)[C@H](O)[C@H](C)O1

>  <category>
1 (yes)

$$$$
>  <compound>
CCN(CC)C(=O)N1CCN(C)CC1

>  <category>
0 (no)

$$$$

---

# Tested on: SC27B
# experiment: qHTS profiling for inhibitors of Plasmodium falciparum proliferation (AID 504749); also: nearly all actives have a fitted effect of over 60% in size
# recorded conditions: P. falciparum in erythrocytes, SYBR Green DNA, 72 h; series mostly up to 28.7 µM
Results filed as inconclusive are left out. Activity calls are given as the source filed them. The call rests on the fitted dose curve; in most records, active means well fitted inhibition curve with a large enough effect; inconclusive means small, poorly fitted or top-dose-only effect; inactive means flat fitted curve, though single readings scatter.
Outcomes: active, inactive

>  <compound>
CC(O)(P(=O)(O)O)P(=O)(O)O

>  <category>
inactive

$$$$
>  <compound>
O=C(O)CCCCC(=O)O

>  <category>
inactive

$$$$
>  <compound>
CCCCCCCCCCCCCCNCCO

>  <category>
inactive

$$$$
>  <compound>
Oc1ccc(Cl)c2cccnc12

>  <category>
inactive

$$$$
>  <compound>
O=C(CCN1CCC(c2ccccc2)C1)c1ccc2c(c1)OCCO2 (centres undefined)

>  <category>
inactive

$$$$
>  <compound>
CCOc1ccc2nc3cc(N)ccc3c(N)c2c1

>  <category>
active

$$$$
>  <compound>
CN1C(CCl)Nc2cc(Cl)c(S(N)(=O)=O)cc2S1(=O)=O (centres undefined)

>  <category>
inactive

$$$$
>  <compound>
COc1ccc(/C=C/C(=O)c2ccc(OC)cc2OC)cc1

>  <category>
active

$$$$
>  <compound>
Cc1ccnc(NS(=O)(=O)c2ccc(N)cc2)n1

>  <category>
inactive

$$$$
>  <compound>
COc1ccc(CN2CCN(C(c3ccc(F)cc3)c3ccc(F)cc3)CC2)c(OC)c1OC

>  <category>
active

$$$$
>  <compound>
C[N+]1(CCCCC[N+]2(C)CCCC2)CCCC1

>  <category>
inactive

$$$$
>  <compound>
CCCCC(CC)CN=C(N)NC(N)=NCCCCCCN=C(N)NC(N)=NCC(CC)CCCC (centres undefined)

>  <category>
active

$$$$
>  <compound>
CC(C)(C(=O)c1cccnc1)c1cccnc1

>  <category>
inactive

$$$$
>  <compound>
C[C@H]1[C@H](NC(=O)/C(=N/OC(C)(C)C(=O)O)c2csc(N)n2)C(=O)N1S(=O)(=O)O (stereo in doubt)

>  <category>
inactive

$$$$
>  <compound>
C[C@@H](CN(C)C)CN1c2ccccc2Sc2ccccc21

>  <category>
inactive

$$$$
>  <compound>
CC(=O)Oc1ccc(C(=C2CCCCC2)c2ccc(OC(C)=O)cc2)cc1

>  <category>
inactive

$$$$
>  <compound>
COC1=CC(=O)C[C@@H](C)[C@]12Oc1c(Cl)c(OC)cc(OC)c1C2=O

>  <category>
inactive

$$$$
>  <compound>
Cc1c(N(C)CS(=O)(=O)O)c(=O)n(-c2ccccc2)n1C

>  <category>
inactive

$$$$
>  <compound>
COc1cccc2c1C(=O)c1c(O)c3c(c(O)c1C2=O)C[C@@](O)(C(C)=O)C[C@@H]3O[C@H]1C[C@H](N)[C@H](O)[C@H](C)O1

>  <category>
active

$$$$
>  <compound>
N[C@@H](Cc1cnc[nH]1)C(=O)O

>  <category>
inactive

$$$$
>  <compound>
O=c1c(-c2ccccc2)c1-c1ccccc1

>  <category>
active

$$$$
>  <compound>
COc1cccc(CCc2ccccc2OCC(CN(C)C)OC(=O)CCC(=O)O)c1 (centres undefined)

>  <category>
active

$$$$
>  <compound>
O=C(Nc1ccc(Oc2ccc(Cl)cc2)c(Cl)c1)c1cc(I)cc(I)c1O

>  <category>
inactive

$$$$
>  <compound>
C[C@H]1C[C@H]2[C@@H]3CCC4=CC(=O)C=C[C@]4(C)[C@@]3(Cl)[C@@H](O)C[C@]2(C)[C@@]1(O)C(=O)CO

>  <category>
inactive

$$$$
>  <compound>
CCOC(=O)c1cccc(N)c1

>  <category>
inactive

$$$$
>  <compound>
COc1cc(NS(C)(=O)=O)ccc1Nc1c2ccccc2nc2ccccc12

>  <category>
active

$$$$
>  <compound>
CC1(C)CCC(NC(=O)[C@@H](N)CCC(=O)O)CC1

>  <category>
inactive

$$$$
>  <compound>
CCN(CCCc1ccccc1)CCCc1ccccc1

>  <category>
inactive

$$$$
>  <compound>
CCCN1CCCC[C@H]1C(=O)Nc1c(C)cccc1C

>  <category>
inactive

$$$$
>  <compound>
CCN(CC)CCNC(=O)COc1ccc(Cl)cc1

>  <category>
active

$$$$
>  <compound>
CCCn1c(=O)[nH]c(=O)c2[nH]cnc21

>  <category>
inactive

$$$$
>  <compound>
CCOc1ccc(Cc2nccc3cc(OCC)c(OCC)cc23)cc1OCC

>  <category>
inactive

$$$$
>  <compound>
CCN1CCN(c2cc3c(cc2F)c(=O)c(C(=O)O)cn3C2CC2)CC1

>  <category>
inactive

$$$$
>  <compound>
O=C(OCCOCCO)c1ccccc1Nc1cccc(C(F)(F)F)c1

>  <category>
inactive

$$$$
>  <compound>
NC(=O)C(=O)N/N=C/c1ccc([N+](=O)[O-])o1

>  <category>
inactive

$$$$
>  <compound>
Cc1ccc(C(=O)C(C)CN2CCCCC2)cc1 (centres undefined)

>  <category>
inactive

$$$$
>  <compound>
CNCCC(Oc1ccccc1C)c1ccccc1 (centres undefined)

>  <category>
inactive

$$$$
>  <compound>
O=C1c2ccccc2C(=O)C1c1ccccc1

>  <category>
inactive

$$$$
>  <compound>
C[C@@H]1C[C@H]2[C@@H]3CCC4=CC(=O)C=C[C@]4(C)[C@@]3(F)[C@@H](O)C[C@]2(C)[C@H]1C(=O)CO

>  <category>
inactive

$$$$
>  <compound>
CCOC(=O)COc1ccc2c(C)c(CCN(CC)CC)c(=O)oc2c1Cl

>  <category>
inactive

$$$$
>  <compound>
CCCCCCc1ccc(O)cc1O

>  <category>
inactive

$$$$
>  <compound>
CCCCCCCCCCCCCCCCOP(=O)([O-])OCC[N+](C)(C)C

>  <category>
inactive

$$$$
>  <compound>
CCCCOc1cc(C(=O)NCCN(CC)CC)c2ccccc2n1

>  <category>
inactive

$$$$
>  <compound>
O=C(O)c1cc2cc(Cc3cccnc3)ccc2o1

>  <category>
inactive

$$$$
>  <compound>
O=C1CCC(c2ccc(-n3ccnc3)cc2)=NN1

>  <category>
inactive

$$$$
>  <compound>
NCCc1ccn[nH]1

>  <category>
inactive

$$$$
>  <compound>
CCN1CCCC1=O

>  <category>
inactive

$$$$
>  <compound>
C[C@@H]1C(=O)NC2=Nc3cccc(Cl)c3CN21

>  <category>
inactive

$$$$
>  <compound>
Nc1ccc(/C=C/c2ccc(N)cc2S(=O)(=O)O)c(S(=O)(=O)O)c1

>  <category>
inactive

$$$$
